For each entry below, report its Length of entire tube of HUVEC (2 × 10^4 cells) (pixels) value.
Tested on: HUVEC
test_name: Cell-based functional assay, endothelial cell tube formation (BD BioCoat Angiogenesis System)
Set-up: species or system human
assay_setup: 5 μM fused protein synergibody, 18 hours; unrelated control group 12,227 ± 1,232

A selection of reference data follows.
INSERT INTO measurements (molecule, result) VALUES
  ('Syn-Ang-VEGFR-19: fused protein synergibody SAITAng-2-4 × DTN10VEGFR-2-4, peptide at C-terminal of heavy chain (protein, left off: a dimerising Fc or GST, fused protein synergibody SAITAng-2-4 × DTN10VEGFR-2-4, peptide at C-terminal of heavy chain) heavy (part 1 of 2): QVQLQQSGAELARPGASVKLSCKASGYTFTDYYINWAKQRTGQGLEWIGEIYPGSGDTYYNEKFKGKATLTADKSSSTAYMQLSSLTSEDSAVYFCARYGYKGVYFDYWGQSTTLTVSS heavy (part 2 of 2): TGSGRMCDGSGPPTNCWFT light: ENVLTQSPAIMAASLGQKVTMTCSASSSVSSSYLHWYQQKSGASPKPLIHRTSNLASGVPARFSGSGSGTSYSLTISSVEAEDDATYYCQQWSGYPFTFGAGTKLELK', '5,329 ± 822 pixels'),
  ('Syn-Ang-VEGFR-10: fused protein synergibody SAITAng-2-2 × DTN11VEGFR-2-5, peptide at C-terminal of heavy chain (protein, left off: a dimerising Fc or GST, fused protein synergibody SAITAng-2-2 × DTN11VEGFR-2-5, peptide at C-terminal of heavy chain) heavy (part 1 of 2): QVQLQQSGPELVKPGASVKMSCKASGYTFTDYVISWVKQRTGQGLEWIGEIYPGSGSTYYNEKFKGKASLTADKSSNTAYMQLSSLTSADSAVYFCVRSRGDYYAMDYWGQGTSVTVSS heavy (part 2 of 2): PGSQGYCHLNMRYQWICDSE light: DIQMTQSPSSLSASLGGKVTITCKASQDINNYITWYQHKPGKGPRLLIHYTSTLQPGIPSRFSGSGSGRDYSFSISNLEPEDIATYYCLQYDNLLTFGGGTKLEIK', '5,898 ± 1,037 pixels'),
  ('Syn-Ang-VEGFR-20: fused protein synergibody SAITAng-2-4 × DTN11VEGFR-2-5, peptide at C-terminal of heavy chain (protein, left off: a dimerising Fc or GST, fused protein synergibody SAITAng-2-4 × DTN11VEGFR-2-5, peptide at C-terminal of heavy chain) heavy (part 1 of 2): QVQLQQSGAELARPGASVKLSCKASGYTFTDYYINWAKQRTGQGLEWIGEIYPGSGDTYYNEKFKGKATLTADKSSSTAYMQLSSLTSEDSAVYFCARYGYKGVYFDYWGQSTTLTVSS heavy (part 2 of 2): PGSQGYCHLNMRYQWICDSE light: ENVLTQSPAIMAASLGQKVTMTCSASSSVSSSYLHWYQQKSGASPKPLIHRTSNLASGVPARFSGSGSGTSYSLTISSVEAEDDATYYCQQWSGYPFTFGAGTKLELK', '5,512 ± 699 pixels');

Moving on to another molecule below.
Read off the recorded Length of entire tube of HUVEC (2 × 10^4 cells) (pixels) for Syn-Ang-VEGFR-17: fused protein synergibody SAITAng-2-4 × DTN8VEGFR-2-2, peptide at C-terminal of heavy chain (protein, left off: a dimerising Fc or GST, fused protein synergibody SAITAng-2-4 × DTN8VEGFR-2-2, peptide at C-terminal of heavy chain) heavy (part 1 of 2): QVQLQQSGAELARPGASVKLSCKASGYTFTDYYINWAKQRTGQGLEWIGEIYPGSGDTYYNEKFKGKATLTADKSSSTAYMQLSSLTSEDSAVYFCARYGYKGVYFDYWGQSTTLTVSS heavy (part 2 of 2): EAGKETCGYEWQYCPRP light: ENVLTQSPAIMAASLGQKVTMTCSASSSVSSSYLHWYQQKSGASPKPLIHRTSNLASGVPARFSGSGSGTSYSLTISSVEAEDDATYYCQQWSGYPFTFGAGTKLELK 5,215 ± 714 pixels
